- Tested on: Staphylococcus aureus
- measurement_description: Inhibition of EtBr efflux in ciprofloxacin-resistant Staphylococcus aureus 1199B overexpressing norA and harboring A116E grlA mutant assessed as reduction in fluorescence intensity at 10 uM measured for 5 mins by microplate reader analysis relative to control
- Assay type: functional
readout_type: inhibition (%)
Answers are plain numbers, in %.

Here are 2 compounds together with their reported answers.
CCCOc1ccc(-c2cc(OCCN3CCCCCC3)c3cc(OCCC)ccc3n2)cc1    78.8
CCCOc1ccc(-c2cc(OCCN3CCCCC3)c3cc(SC)ccc3n2)cc1    80.2

Okay, next one:
Give me measured inhibition, please, for this compound: "CCCOc1ccc(-c2cc(OCCN3CCCCCC3)c3cc(SC)ccc3n2)cc1"
81.1
